Quick list: one-hybrid fitness for binding NBS DNA per entry.
B1: Caulobacter ParB omega fusion; a variant is named by its letters at X, in order, B8GW30 (parent)
chain: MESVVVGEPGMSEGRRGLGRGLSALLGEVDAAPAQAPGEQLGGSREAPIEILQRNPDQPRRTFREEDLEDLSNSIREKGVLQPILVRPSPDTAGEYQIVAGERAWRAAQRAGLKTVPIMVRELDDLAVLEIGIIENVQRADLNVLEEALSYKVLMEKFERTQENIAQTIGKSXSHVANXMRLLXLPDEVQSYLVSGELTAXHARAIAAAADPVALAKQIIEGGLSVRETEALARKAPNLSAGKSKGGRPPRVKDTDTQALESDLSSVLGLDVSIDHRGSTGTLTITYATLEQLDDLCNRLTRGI

- Variants of: B1
- Method Notes: one-hybrid fitness for binding NBS DNA (the Noc-binding site; scaled: cognate 1, non-cognate 0); higher = stronger binding
- Experimental Setup: with NBS DNA site
In all, about 81,000 sequences were measured (“one-hybrid fitness for binding NBS DNA”: median about -0.1, highest 2% from about 0.36 on). For the sample, the highest values were picked, then their nearest neighbours and some sequences at random.

Sample records with one-hybrid fitness for binding NBS DNA:
For "HRSV" , what is its reported one-hybrid fitness for binding NBS DNA? ≤ 0.2

For "RAYA" , what is its reported one-hybrid fitness for binding NBS DNA? ≤ 0.2

For "QPKK" , what is its reported one-hybrid fitness for binding NBS DNA? ≤ 0.2

For "NGTR" , what is its reported one-hybrid fitness for binding NBS DNA? ≤ 0.2

More entries:
For "QTKK" , what is its reported one-hybrid fitness for binding NBS DNA? 0.596

For "QANT" , what is its reported one-hybrid fitness for binding NBS DNA? 0.462

For "DGGN" , what is its reported one-hybrid fitness for binding NBS DNA? ≤ 0.2

For "AHII" , what is its reported one-hybrid fitness for binding NBS DNA? ≤ 0.2

For "KDKK" , what is its reported one-hybrid fitness for binding NBS DNA? ≤ 0.2

For "FQTK" , what is its reported one-hybrid fitness for binding NBS DNA? ≤ 0.2

For "TFLV" , what is its reported one-hybrid fitness for binding NBS DNA? ≤ 0.2
